Quick reference: aPTT of the listed items.
system: normal human plasma; test: aPTT assay in normal human plasma; assay type: biochemical; details: 100 nM, normal human plasma

{"MOLECULE": "NAPTin-4 (protein, Sequence derived from Ancylostoma caninum or Synthetic) NPSCGENERHDECSRKECDPKCKYDGTEEKDDEKPVVCLTRVCYGDCICRDGFLRNKNGACVKAEDCELDNME", "aPTT / s": 78.7}
{"MOLECULE": "NAPTin-9 (protein, Sequence derived from Ancylostoma caninum or Synthetic) NPSCGENERHDECSRKECDPKCKYDGTEEKDDEKPVVCLTRVCYGDCICRDGFLRNKNGACVKAEDCELDNMEFI", "aPTT / s": 80.8}
{"MOLECULE": "NAPTin-7 (protein, Sequence derived from Ancylostoma caninum or Synthetic) NPSCGENERHDECSRKECDPKCKYDGTEEKDDEKPVVCLTRVCYGDCICRDGFLRNKNGACVKAEDC", "aPTT / s": 78.7}
{"MOLECULE": "NAPTin-1 (protein, Sequence derived from Ancylostoma caninum or Synthetic) NPSCGENERHDECSRKECDPKCKYDGTEEKDDEKPVVCLTRVCYGDCICRDGFLRNKNGACVKAEDCELD", "aPTT / s": 79.2}
{"MOLECULE": "NAPTin-5 (protein, Sequence derived from Ancylostoma caninum or Synthetic) NPSCGENERHDECSRKECDPKCKYDGTEEKDDEKPVVCLTRVCYGDCICRDGFLRNKNGACVKAEDCEL", "aPTT / s": 77.9}
{"MOLECULE": "NAPTin-6 (protein, Sequence derived from Ancylostoma caninum or Synthetic) NPSCGENERHDECSRKECDPKCKYDGTEEKDDEKPVVCLTRVCYGDCICRDGFLRNKNGACVKAEDCE", "aPTT / s": 79.5}
{"MOLECULE": "NAPTin-2 (protein, Sequence derived from Ancylostoma caninum or Synthetic) NPSCGENERHDECSRKECDPKCKYDGTEEKDDEKPVVCLTRVCYGDCICRDGFLRNKNGACVKAEDCELDN", "aPTT / s": 80.2}
{"MOLECULE": "NAPTin-8 (protein, Sequence derived from Ancylostoma caninum or Synthetic) NPSCGENERHDECSRKECDPKCKYDGTEEKDDEKPVVCLTRVCYGDCICRDGFLRNKNGACVKAEDCELDNMEF", "aPTT / s": 79.7}
{"MOLECULE": "NAPTin-3 (protein, Sequence derived from Ancylostoma caninum or Synthetic) NPSCGENERHDECSRKECDPKCKYDGTEEKDDEKPVVCLTRVCYGDCICRDGFLRNKNGACVKAEDCELDNM", "aPTT / s": 83.0}
